Sourced from patent US4861788A

Tested on: M. hyopneumoniae Str. 11
Protocol Description: MIC against Mycoplasma in vitro (Friis broth with agarose)
Assay type: cell-based
Measurement Conditions: Mesomycoplasma hyopneumoniae, 144 h; M. hyopneumoniae Str. 11; 6 days at 37° C; read-out: MIC
For each of the compounds below, state its MIC.
Unit µg/mL implied. Number only.

Q) Please look up its MIC: CC(=Cc1nnc(-c2ccco2)o1)CC1OCC(CC2OC2C(C)C(C)O)C(O)C1O (centres unmarked) [Example 8]
A) 5

Q) Please look up its MIC: CC(=Cc1nnc(-c2ccc(S(C)(=O)=O)cc2)o1)CC1OCC(CC2OC2C(C)C(C)O)C(O)C1O (centres unmarked) [Example 4]
A) 0.25

Q) Please look up its MIC: CC(=Cc1nnc(-c2cccnc2)o1)CC1OCC(CC2OC2C(C)C(C)O)C(O)C1O (centres unmarked) [Example 5]
A) 1

Q) Please look up its MIC: CC(=Cc1nnc(-c2ccncc2)o1)CC1OCC(CC2OC2C(C)C(C)O)C(O)C1O (centres unmarked) [Example 7]
A) 0.5

Q) Please look up its MIC: CC(=Cc1nnc(-c2cccc([N+](=O)[O-])c2)o1)CC1OCC(CC2OC2C(C)C(C)O)C(O)C1O (centres unmarked) [Example 2]
A) 0.025

Q) Please look up its MIC: CC(=Cc1nnnn1Cc1ccc([N+](=O)[O-])cc1)CC1OCC(CC2OC2C(C)C(C)O)C(O)C1O (centres unmarked) [Example 12]
A) 2.5

* * *

Tested on: M. hyopneumoniae HK (2)
Protocol Description: MIC against Mycoplasma in vitro (Friis broth with agarose)
Assay type: cell-based
Measurement Conditions: Mesomycoplasma hyopneumoniae, 144 h; M. hyopneumoniae HK (2); 6 days at 37° C; read-out: MIC
For each of the compounds below, state its MIC.
Unit µg/mL implied. Number only.

Q) Please look up its MIC: CC(=Cc1nc(-c2ccccc2)no1)CC1OCC(CC2OC2C(C)C(C)O)C(O)C1O (stereo not shown)
A) 10

Q) Please look up its MIC: CC(=Cc1nnc(-c2ccc(S(C)(=O)=O)cc2)o1)CC1OCC(CC2OC2C(C)C(C)O)C(O)C1O (stereo not shown)
A) 0.25

Q) Please look up its MIC: CSc1ccc(-c2nnc(C=C(C)CC3OCC(CC4OC4C(C)C(C)O)C(O)C3O)o2)cc1 (stereo not shown)
A) 1

Q) Please look up its MIC: CC(=Cc1nnnn1Cc1ccc([N+](=O)[O-])cc1)CC1OCC(CC2OC2C(C)C(C)O)C(O)C1O (stereo not shown)
A) 5

Q) Please look up its MIC: CC(=Cc1nnc(-c2ccco2)o1)CC1OCC(CC2OC2C(C)C(C)O)C(O)C1O (stereo not shown)
A) 10

* * *

For each of the compounds below, state its MIC.
Tested on: M. gallisepticum S6
Protocol Description: MIC against Mycoplasma in vitro (Friis broth with agarose)
Type: cell-based
Measurement Conditions: Mycoplasmoides gallisepticum, 144 h; M. gallisepticum S6; 6 days at 37° C; read-out: MIC

Q) Please look up its MIC: CC(=Cc1nnc(-c2cccc(C#N)c2)o1)CC1OCC(CC2OC2C(C)C(C)O)C(O)C1O (stereo not shown)
A) > 10 µg/mL

Q) Please look up its MIC: CC(=Cc1nc(-c2ccc([N+](=O)[O-])cc2)no1)CC1OCC(CC2OC2C(C)C(C)O)C(O)C1O (stereo not shown)
A) > 10 µg/mL

Q) Please look up its MIC: CC(=Cc1nnc(-c2ccccc2)o1)CC1OCC(CC2OC2C(C)C(C)O)C(O)C1O (stereo not shown)
A) > 10 µg/mL

Q) Please look up its MIC: CC(=Cc1nnnn1CCCCCCCCC(=O)O)CC1OCC(CC2OC2C(C)C(C)O)C(O)C1O (stereo not shown)
A) > 10 µg/mL

Q) Please look up its MIC: COC(=O)CCCCCCCCn1nnnc1C=C(C)CC1OCC(CC2OC2C(C)C(C)O)C(O)C1O (stereo not shown)
A) > 10 µg/mL

Q) Please look up its MIC: CC(=Cc1nnc(-c2ccc(S(C)(=O)=O)cc2)o1)CC1OCC(CC2OC2C(C)C(C)O)C(O)C1O (stereo not shown)
A) > 10 µg/mL

Q) Please look up its MIC: CSc1ccc(-c2nnc(C=C(C)CC3OCC(CC4OC4C(C)C(C)O)C(O)C3O)o2)cc1 (stereo not shown)
A) > 10 µg/mL

* * *

System: M. hyopneumoniae UCD 1
Protocol Description: MIC against Mycoplasma in vitro (Friis broth with agarose)
Assay type: cell-based
Measurement Conditions: Mesomycoplasma hyopneumoniae, UCD1, 144 h
Property Label: MIC (µg/mL)
Unit µg/mL implied. Number only.

Q) Please look up its MIC: CC(=CC(=O)NN)CC1OCC(CC2OC2C(C)C(C)O)C(O)C1O (stereo not shown) [Example 9, Monohydrazide A]
A) 10

Q) Please look up its MIC: CC(=Cc1nc(-c2ccc([N+](=O)[O-])cc2)no1)CC1OCC(CC2OC2C(C)C(C)O)C(O)C1O (stereo not shown)
A) 0.5

Q) Please look up its MIC: CC(=Cc1noc(-c2ccccc2)n1)CC1OCC(CC2OC2C(C)C(C)O)C(O)C1O (stereo not shown)
A) 2.5

Q) Please look up its MIC: CC(=Cc1nnc(-c2cccnc2)o1)CC1OCC(CC2OC2C(C)C(C)O)C(O)C1O (stereo not shown)
A) 2.5

* * *

Test system: M. hyopneumoniae MS 16
Protocol Description: MIC against Mycoplasma in vitro (Friis broth with agarose)
Format: cell-based
Measurement Conditions: Mesomycoplasma hyopneumoniae, MS16, 144 h; M. hyopneumoniae MS 16; 6 days at 37° C; read-out: MIC
Binary call on MIC with cut-off 0.5 µg/mL: strictly below means rule met, and equality or higher means rule not met.

Q) Would you kindly verify if MIC of COC(=O)CCCCCCCCn1nnnc1C=C(C)CC1OCC(CC2OC2C(C)C(C)O)C(O)C1O (centres unmarked) [Example 13] is strictly less than 0.5 µg/mL?
A) rule not met

Q) Would you kindly verify if MIC of CC(=Cc1nnc(-c2ccccc2)o1)CC1OCC(CC2OC2C(C)C(C)O)C(O)C1O (centres unmarked) [Example 1] is strictly less than 0.5 µg/mL?
A) rule not met

Q) Would you kindly verify if MIC of CC(=Cc1nnc(-c2cccc(C#N)c2)o1)CC1OCC(CC2OC2C(C)C(C)O)C(O)C1O (centres unmarked) [Example 11] is strictly less than 0.5 µg/mL?
A) rule met

Q) Would you kindly verify if MIC of CC(=Cc1nnnn1Cc1ccc([N+](=O)[O-])cc1)CC1OCC(CC2OC2C(C)C(C)O)C(O)C1O (centres unmarked) [Example 12] is strictly less than 0.5 µg/mL?
A) rule not met

Q) Would you kindly verify if MIC of CC(=Cc1nnc(-c2cccc([N+](=O)[O-])c2)o1)CC1OCC(CC2OC2C(C)C(C)O)C(O)C1O (centres unmarked) [Example 2] is strictly less than 0.5 µg/mL?
A) rule met

Q) Would you kindly verify if MIC of CC(=Cc1nnnn1CCCCCCCCC(=O)O)CC1OCC(CC2OC2C(C)C(C)O)C(O)C1O (centres unmarked) [Example 14] is strictly less than 0.5 µg/mL?
A) rule not met

Q) Would you kindly verify if MIC of CC(=Cc1noc(-c2ccccc2)n1)CC1OCC(CC2OC2C(C)C(C)O)C(O)C1O (centres unmarked) [Example 17] is strictly less than 0.5 µg/mL?
A) rule not met

* * *

For each of the compounds below, state its MIC.
Test system: M. pneumoniae ATCC 15492
Protocol Description: MIC against Mycoplasma in vitro (Friis broth with agarose)
Format: cell-based
Measurement Conditions: Mycoplasmoides pneumoniae, ATCC15492, 144 h; M. pneumoniae ATCC 15492; 6 days at 37° C; read-out: MIC

Q) Please look up its MIC: CC(=Cc1nnc(-c2ccc(N(C)C)cc2)o1)CC1OCC(CC2OC2C(C)C(C)O)C(O)C1O (centres unmarked)
A) 10 µg/mL

Q) Please look up its MIC: CC(=Cc1nnnn1CCCCCCCCC(=O)O)CC1OCC(CC2OC2C(C)C(C)O)C(O)C1O (centres unmarked)
A) > 10 µg/mL

Q) Please look up its MIC: CC(=Cc1nnc(-c2cccnc2)o1)CC1OCC(CC2OC2C(C)C(C)O)C(O)C1O (centres unmarked)
A) > 10 µg/mL

Q) Please look up its MIC: CC(=Cc1nc(-c2ccc([N+](=O)[O-])cc2)no1)CC1OCC(CC2OC2C(C)C(C)O)C(O)C1O (centres unmarked)
A) > 10 µg/mL

Q) Please look up its MIC: CC(=Cc1nnc(-c2cccs2)o1)CC1OCC(CC2OC2C(C)C(C)O)C(O)C1O (centres unmarked)
A) > 10 µg/mL

Q) Please look up its MIC: CC(=Cc1nnc(-c2cccc([N+](=O)[O-])c2)o1)CC1OCC(CC2OC2C(C)C(C)O)C(O)C1O (centres unmarked)
A) 2.5 µg/mL

Q) Please look up its MIC: CSc1ccc(-c2nnc(C=C(C)CC3OCC(CC4OC4C(C)C(C)O)C(O)C3O)o2)cc1 (centres unmarked)
A) > 10 µg/mL

Q) Please look up its MIC: CC(=Cc1nc(-c2ccccc2)no1)CC1OCC(CC2OC2C(C)C(C)O)C(O)C1O (centres unmarked)
A) > 10 µg/mL
